target: Methanococcus maripaludis chaperonin (MmCpn) (UniProt Q6LX38); test: High-Throughput Screening for Modulators of Cytosolic Chaperonin Activity: MmCpn Primary Screen (AID 488978); conditions: Purified MmCpn ATPase activity, ADP HTRF detection, 10 min; series mostly up to 76.9 µM;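 note: 50 nM MmCpn enzyme hydrolysing 30 µM ATP at 37 °C; 0% is about no effect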
Activity calls are given as the source filed them. Calls come from the whole dose curve; as a rule, active = well fitted curve in the direction sought with a large enough effect; inconclusive = small, poorly fitted or top-dose-only effect, or another doubt; inactive = no such curve, though single readings can be large or run the other way.
property_label: outcome

CN(C)CCCN1c2ccccc2CCc2ccc(Cl)cc21	inactive
O=c1c(-c2ccc(O)cc2)coc2cc(O)cc(O)c12	inactive
CC(C)C(=O)Nc1ccc([N+](=O)[O-])c(C(F)(F)F)c1	inactive
OCCN(CCO)c1nc(N2CCCCC2)c2nc(N(CCO)CCO)nc(N3CCCCC3)c2n1	inactive
NS(=O)(=O)c1cc2c(cc1Cl)NCNS2(=O)=O	inactive

Now for a further molecule.
Query: Fill in: outcome of Cc1cnc(C(=O)NCCc2ccc(S(=O)(=O)NC(=O)NC3CCCCC3)cc2)cn1 is ___
Result: inactive

----------
experiment: Cytotoxicity counterscreen for NFkB agonists and antagonists (AID 624476); details: NFkB reporter cell line viability counterscreen; series mostly up to 46.1 µM;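 note: cells exposed to compound for 48 hours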
Inconclusive results are not listed. Activity calls are given as the source filed them. Calls come from the whole dose curve; as a rule, active = well fitted curve in the direction sought with a large enough effect; inconclusive = small, poorly fitted or top-dose-only effect, or another doubt; inactive = no such curve, though single readings can be large or run the other way.
Write down one outcome, taken from 1 for active, 0 for inactive

Recorded results for 4 compounds are shown here.
COc1ccc(CCN(C)CCCC(C#N)(c2ccc(OC)c(OC)c2)C(C)C)cc1OC (stereo not given)	0
Cn1ccc2cc3c(cc21)CCN3C(=O)Nc1cccnc1	0
O=c1c(O)c(-c2ccc(O)c(O)c2)oc2cc(O)cc(O)c12	0
CN(C)C(=N)N=C(N)N	0

Query: Could you kindly confirm the outcome this assay logged for CS(=O)(=O)CCNCc1ccc(-c2ccc3ncnc(Nc4ccc(OCc5cccc(F)c5)c(Cl)c4)c3c2)o1 ?
Result: 1

----------
test: Quantitative High-Throughput drug screen in 47 multiple myeloma cell lines against the NCATS MIPE library collection: Karpas25_ECACC cell viability assay (AID 1918968; note: nearly all actives have a fitted effect of over 35% in size); details: Karpas25 myeloma viability, CellTiter-Glo ATP, 48 h; series mostly up to 45.8 µM
Records with an inconclusive call do not appear. Active and inactive are the calls of the source. Calls follow the shape of the dose curve; as a rule, active = well fitted cell-killing curve with a large enough effect; inconclusive = small, poorly fitted or top-dose-only effect, or effect the other way; inactive = no such curve, though single readings can be large or run the other way.
Write down one outcome, taken from 1.0 for active, 0.0 for inactive

Recorded results for 6 molecules are shown here.
NCCCCCC(=O)O	0.0
O=C(Nc1ccc([N+](=O)[O-])cc1Cl)c1cc(Cl)ccc1O	1.0
OCCN1CCN(CCCN2c3ccccc3Sc3ccc(C(F)(F)F)cc32)CC1	1.0
CN1CCC(=C2c3ccccc3CC(=O)c3sccc32)CC1	1.0
CN(C)CCOC(c1ccccc1)c1ccccc1	1.0
NC(CO)C(=O)NNCc1ccc(O)c(O)c1O (centres undefined)	0.0

Query: Could you kindly confirm the outcome this assay logged for Cc1cn([C@H]2C=C[C@@H](CO)O2)c(=O)[nH]c1=O ?
Result: 1.0

Query: Also need CC(CCc1ccc(O)cc1)NCCc1ccc(O)c(O)c1 (centres undefined) , thanks.
Result: 1.0

Query: Also need COc1cc2c(c(OC)c1OC)-c1ccc(OC)c(=O)cc1[C@@H](NC(C)=O)CC2 , thanks.
Result: 0.0

Query: Also need NCCc1cnc[nH]1 , thanks.
Result: 0.0

Query: Also need CC#C[C@]1(O)CC[C@H]2[C@@H]3CCC4=CC(=O)CCC4=C3[C@@H](c3ccc(N(C)C)cc3)C[C@@]21C , thanks.
Result: 1.0

Query: Also need CC1(CN2CCC(n3c(=O)[nH]c4ccccc43)CC2)OCc2ccccc2-n2cccc21 (centres undefined) , thanks.
Result: 1.0

Query: Also need CN(C)CCCN1c2ccccc2CCc2ccc(Cl)cc21 , thanks.
Result: 1.0

Query: Also need Cn1ccc2cc3c(cc21)CCN3C(=O)Nc1cccnc1 , thanks.
Result: 1.0

Query: Also need CN1CCC(=C2c3ccccc3C=Cc3ccccc32)CC1 , thanks.
Result: 1.0

----------
experiment: qHTS assay for environmental chemicals that activate the Aryl hydrocarbon Receptor (AhR) signaling pathway (AID 651777); conditions: 1A2-DRE human hepatoma cells, luciferase, 24 h; stronger effect = higher value; note: % of control where 0% means no effect; nearly all actives have a fitted effect of over 15% in size
Inconclusive results are not listed.
property_label: activation (%)
Please state the figure in %; there is no need to write the unit.

CC(C)Cc1ccc(C(C)C(=O)O)cc1 (configuration not stated)	-1.21
NCCS(=O)(=O)O	-0.375
Nc1c2c(nc3ccccc13)CCCC2	11.6

Query: Fill in: activation of CCOC(=O)C(C)(C)Oc1ccc(Cl)cc1 is ___
Result: 0.305

Query: Also need CN(C)CCOC(c1ccccc1)c1ccccc1 , thanks.
Result: 0.827

Query: Also need O=C(c1ccc(OCCN2CCCCC2)cc1)c1c(-c2ccc(O)cc2)sc2cc(O)ccc12 , thanks.
Result: -4.31

Query: Also need CC#C[C@]1(O)CC[C@H]2[C@@H]3CCC4=CC(=O)CCC4=C3[C@@H](c3ccc(N(C)C)cc3)C[C@@]21C , thanks.
Result: 14.1

----------
system: DIV30; test: qHTS profiling for inhibitors of Plasmodium falciparum proliferation (AID 504749); note: nearly all actives have a fitted effect of over 60% in size; conditions: P. falciparum in erythrocytes, SYBR Green DNA, 72 h; series mostly up to 28.7 µM
Results filed as inconclusive are left out. Calls of active or inactive are those of the source. Calls come from the whole dose curve; as a rule, active = well fitted inhibition curve with a large enough effect; inconclusive = small, poorly fitted or top-dose-only effect; inactive = flat fitted curve, though single readings scatter.
Write down one outcome, taken from active, inactive

Recorded results for 3 compounds are shown here.
NCCS(=O)(=O)O	inactive
CC[N+](CC)(CC)CCOc1cccc(OCC[N+](CC)(CC)CC)c1OCC[N+](CC)(CC)CC	inactive
CC(CCc1ccc(O)cc1)NCCc1ccc(O)c(O)c1 (stereo not drawn)	inactive

Query: Could you kindly confirm the outcome this assay logged for NS(=O)(=O)c1cc2c(cc1Cl)NCNS2(=O)=O ?
Result: inactive

Query: Also need CCOC(=O)c1ncn2c1CN(C)C(=O)c1cc(F)ccc1-2 , thanks.
Result: inactive

Query: Also need CN1CCC(=C2c3ccccc3C=Cc3ccccc32)CC1 , thanks.
Result: inactive

----------
system: CP256; assay: qHTS profiling for inhibitors of Plasmodium falciparum proliferation (AID 504749); note: nearly all actives have a fitted effect of over 60% in size; conditions: P. falciparum in erythrocytes, SYBR Green DNA, 72 h; series mostly up to 28.7 µM
Records with an inconclusive call do not appear. Calls of active or inactive are those of the source. Calls come from the whole dose curve; as a rule, active = well fitted inhibition curve with a large enough effect; inconclusive = small, poorly fitted or top-dose-only effect; inactive = flat fitted curve, though single readings scatter.
property_label: outcome

Sample answers from the record:
CNCCCC12CCC(c3ccccc31)c1ccccc12	inactive
CC(=O)OCC(CCn1cnc2cnc(N)nc21)COC(C)=O	inactive
C[C@](N)(Cc1ccc(O)c(O)c1)C(=O)O	inactive
Cc1cnc(C(=O)NCCc2ccc(S(=O)(=O)NC(=O)NC3CCCCC3)cc2)cn1	inactive
Cn1cnc2c1c(=O)[nH]c(=O)n2C	inactive
CN1CCC(=C2c3ccccc3C=Cc3ccccc32)CC1	inactive
CC[N+](CC)(CC)CCOc1cccc(OCC[N+](CC)(CC)CC)c1OCC[N+](CC)(CC)CC	inactive
NS(=O)(=O)c1cc2c(cc1Cl)NCNS2(=O)=O	inactive

Query: Fill in: outcome of Cn1c(=O)c2[nH]cnc2n(C)c1=O is ___
Result: inactive

Query: Also need NC(=O)NO , thanks.
Result: inactive

Query: Also need Clc1ccc2nsnc2c1NC1=NCCN1 , thanks.
Result: inactive

Query: Also need CCOC(=O)C(C)(C)Oc1ccc(Cl)cc1 , thanks.
Result: inactive

Query: Also need CN(C)C(=N)N=C(N)N , thanks.
Result: inactive

----------
system: CP237; experiment: qHTS profiling for inhibitors of Plasmodium falciparum proliferation (AID 504749); note: nearly all actives have a fitted effect of over 60% in size; settings: P. falciparum in erythrocytes, SYBR Green DNA, 72 h; series mostly up to 28.7 µM
Inconclusive results are not listed. The source made the active and inactive calls. The call rests on the fitted dose curve; in most records, active means well fitted inhibition curve with a large enough effect; inconclusive means small, poorly fitted or top-dose-only effect; inactive means flat fitted curve, though single readings scatter.
Write down one outcome, taken from yes (1) for active, no (0) for inactive

Recorded results for 6 molecules are shown here.
OCCN1CCN(CCCN2c3ccccc3Sc3ccc(C(F)(F)F)cc32)CC1	yes (1)
CC#C[C@]1(O)CC[C@H]2[C@@H]3CCC4=CC(=O)CCC4=C3[C@@H](c3ccc(N(C)C)cc3)C[C@@]21C	yes (1)
CN1CCC(=C2c3ccccc3C=Cc3ccccc32)CC1	no (0)
CCC1(c2ccccc2)C(=O)NCNC1=O	no (0)
CN(C)c1nc(N(C)C)nc(N(C)C)n1	no (0)
C[C@](N)(Cc1ccc(O)c(O)c1)C(=O)O	no (0)

Query: Could you kindly confirm the outcome this assay logged for Cc1cc(C(C)(C)C)cc(C)c1CC1=NCCN1 ?
Result: yes (1)

----------
Target: N-terminal Xaa-Pro-Lys N-methyltransferase 1 (Homo sapiens) (UniProt Q9BV86)
Sequence (Q9BV86 whole entry, looked up): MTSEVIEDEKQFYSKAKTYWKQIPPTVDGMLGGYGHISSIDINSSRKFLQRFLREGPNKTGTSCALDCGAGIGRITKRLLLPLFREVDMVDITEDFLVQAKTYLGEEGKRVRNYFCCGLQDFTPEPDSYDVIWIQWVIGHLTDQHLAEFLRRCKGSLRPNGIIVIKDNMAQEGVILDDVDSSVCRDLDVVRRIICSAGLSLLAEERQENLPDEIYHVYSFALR
Experiment: qHTS Assay for Inhibitors of N-terminal methyltransferase 1 (NTMT1): LOPAC validation of the NTMT1 SAHH-coupled ThioGlo3 Assay (AID 1347143);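 note: SAH from peptide methylation measured as thiol fluorescence via SAHH coupling and ThioGlo3; % is set by controls: 0 for no effect and ±100 for the full control effect; nearly all actives have a fitted effect of over 70% in size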
Conditions: recombinant NTMT1, SAHH-coupled ThioGlo3 fluorescence; series mostly up to 114 µM
Excerpt: Assay Submitter (PI): Rong Huang Ph.D, Purdue University, West Lafayette, IN 47907 The N-terminal methytransferase 1 is the first methyltransferase that methylates protein alpha-N-amines and plays an important role in regulating cell mitosis, chromatin interactions and DNA repair. […] To address this unmet need, a panel of assay is created and established to enable quantitative high-throughput screening (qHTS) for novel, potent, and selective small molecule NTMT1 inhibitors. […]
Inconclusive results are not listed. Active and inactive are the calls of the source. Calls follow the shape of the dose curve; as a rule, active = well fitted inhibition curve with a large enough effect; inconclusive = small, poorly fitted or top-dose-only effect; inactive = no such curve, though single readings can be large or run the other way.
Write down one outcome, taken from active, inactive

CCOC(=O)c1ncn2c1CN(C)C(=O)c1cc(F)ccc1-2	inactive

Query: Could you kindly confirm the outcome this assay logged for CN(C)CCC=C1c2ccccc2C=Cc2ccccc21 ?
Result: inactive

Query: Also need CCOC(=O)C(C)(C)Oc1ccc(Cl)cc1 , thanks.
Result: inactive
